Taken from ChEMBL document CHEMBL1144631.

# Tested on: SARS-CoV
# Protocol Summary: microbe, parasite or virus in culture
# Study Conditions: Severe acute respiratory syndrome-related coronavirus, Frankfurt1, Vero
pIC50: −log10 of the molar value.
Property Measured: pIC50

input: Please state recorded pIC50 (tested on SARS-CoV) of `OC[C@H]1O[C@@H](n2cnc3c(Cl)ncnc32)C[C@@H]1O`
output: < 3.52

input: Now this one: `CSc1ncnc2c1ncn2[C@@H]1O[C@H](CO)[C@@H](O)[C@H]1O`
output: < 3.52

input: Then `NC(=O)c1ncn([C@@H]2O[C@H](CO)[C@@H](O)[C@H]2O)c1O` ?
output: 4.87

input: // next record `NC(=O)c1ncn([C@@H]2O[C@H](CO)[C@@H](O)[C@H]2O)n1`
output: 4.09

input: And then `OCC(CO)CCn1cnc2c(Cl)ncnc21` , what is it?
output: < 3.52

input: Let us now turn to OCC1C(COCc2ccccc2)CC1n1cnc2c(Cl)ncnc21 (configuration not stated)
output: 4.84

input: For `Nc1nc(Cl)c2ncn([C@@H]3O[C@H](CO)[C@@H](O)[C@H]3O)c2n1` then?
output: < 3.52

input: # repeat for `COc1ncnc2c1ncn2[C@@H]1O[C@H](CO)[C@@H](O)[C@H]1O`
output: < 3.52

input: Field entry: `OC[C@@H]1C[C@@H](O)[C@H](n2cnc3c(Cl)ncnc32)O1`
output: < 3.52

input: Now this one: OCC(CCn1cnc2c(Cl)ncnc21)COCc1ccccc1 (configuration not stated)
output: < 3.52

input: Next entry: `O[C@@H]1[C@H](O)[C@@H](COCc2ccccc2)O[C@H]1n1cnc2c(Cl)ncnc21`
output: 3.97

input: What do you have for OCC1CC(n2cnc3c(Cl)ncnc32)C1CO (configuration not stated) ?
output: < 3.52

---

# Tested on: Vero
# Study Conditions: chlorocebus sabaeus
Property Measured: CC50 (µM)
Give just the numeric value; µM need not be written.

input: // CC50 lookup, key: `OC[C@H]1O[C@@H](n2cnc3c(Cl)ncnc32)[C@H](O)[C@@H]1O`
output: 279

---

# Protocol Summary: in vitro
# Study Conditions: chlorocebus sabaeus, Vero E6 cells
Would you kindly list CC50 for each of these molecules?
Enter your answer as a number in µM; do not include the unit.

input: Can you share its CC50? I mean this molecule: OCC1C(COCc2ccccc2)CC1n1cnc2c(Cl)ncnc21 (centres undefined)
output: 78

input: Would you mind doing `O[C@@H]1[C@H](O)[C@@H](COCc2ccccc2)O[C@H]1n1cnc2c(Cl)ncnc21` as well?
output: 174
